Listed here are compounds together with their documented pIC50.
target: human PD-L1 / human PD-1 interaction (Homo sapiens (Human)); test: PD-1/PD-L1 binding ELISA; conditions: PD-1/PD-L1 ELISA, class symbols; read-out: ELISA IC50
Sequence (Q9NZQ7 19-239): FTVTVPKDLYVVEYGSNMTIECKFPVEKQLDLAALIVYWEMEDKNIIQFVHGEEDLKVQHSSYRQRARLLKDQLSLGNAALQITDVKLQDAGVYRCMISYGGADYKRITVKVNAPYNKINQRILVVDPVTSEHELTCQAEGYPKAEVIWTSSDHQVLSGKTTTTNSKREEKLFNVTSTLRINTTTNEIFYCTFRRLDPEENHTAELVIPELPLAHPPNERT
pIC50: −log10 of the molar value.

{"substance-smiles": "COc1nc(-c2cccc(-c3cccc(NC(=O)c4cn(C)c(=O)n(C)c4=O)c3C)c2Cl)ccc1CNC[C@@H]1CCC(=O)N1", "pIC50": "> 8.00"}

Request: Param item = COc1nc(-c2cccc(-c3cccc(NC(=O)c4cn(C)c(=O)n(C)c4=O)c3Cl)c2Cl)ccc1CNC[C@@H]1CCC(=O)N1 ; retrieve measured pIC50.
Response: > 8.00

Request: Param item = COc1nc(-c2cccc(-c3cccc(NC(=O)c4cn(C)c(=O)n(C)c4=O)c3C)c2Cl)ccc1CN[C@@H]1CCOC[C@@H]1O ; retrieve measured pIC50.
Response: > 8.00
